biological target: PDE4B (Homo sapiens); assay: Scintillation Proximity Assay (SPA) of PDE4B enzyme activity ([H3]-cAMP cleavage); format: biochemical; details: test substance 1 μM; one-hour incubation of [H3]-cAMP with PDE4B enzyme at 30° C.
quantity kind: inhibition at 1 µM (%)

O=C1Nc2ccccc2C2(CCN(c3nc4c(c(Nc5cccc(F)c5)n3)[S+]([O-])CC4)CC2)N1 (stereo not shown) [Example 81] :: 83
[O-][S+]1CCc2nc(N3CCC(c4nc(-c5cccnc5)no4)CC3)nc(Nc3cccc(F)c3)c21 (stereo not shown) [Example 146] :: 96
CC(C)c1noc(C2CCN(c3nc4c(c(Nc5cccc(F)c5)n3)[S+]([O-])CC4)CC2)n1 (stereo not shown) [Example 144] :: 94
[O-][S+]1CCc2nc(N3CCC(c4cccc(Cl)c4)CC3)nc(NC3(CO)CC3)c21 (stereo not shown) [Example 39] :: 96

---

molecular target: PDE4B (Homo sapiens); test: Scintillation Proximity Assay (SPA) of PDE4B enzyme activity ([H3]-cAMP cleavage); assay type: biochemical; settings: test substance 1 μM; one-hour incubation of [H3]-cAMP with PDE4B enzyme at 30° C.
Counter-ions that a name gives are not always drawn.
quantity kind: inhibition at 1 µM (%)

CC(C)(O)[C@H](Nc1nc(N2CCC(c3ccc(Cl)cc3)CC2)nc2c1[S+]([O-])CC2)c1ccc(F)cc1 (stereo partly drawn) :: 91
CC(C)[C@H](CO)Nc1nc(N2CCC(c3nnc(-c4ccc(F)cc4)o3)CC2)nc2c1[S+]([O-])CC2 (stereo partly drawn) :: 94
[O-][S+]1CCc2nc(N3CCC(c4ccc(C(F)(F)F)cc4)CC3)nc(NC3CCOCC3)c21 (stereo not drawn) :: 94
CCC[C@H](CO)Nc1nc(N2CCC(c3ccc(Cl)cc3)CC2)nc2c1[S+]([O-])CC2 (stereo partly drawn) :: 94
CC(C)[C@H](CO)Nc1nc(N2CCC(c3cc4ccccc4o3)CC2)nc2c1[S+]([O-])CC2 (stereo partly drawn) :: 96
CS(=O)(=O)N1CC2(CCN(c3nc4c(c(NC5CCOCC5)n3)[S+]([O-])CC4)CC2)c2ccccc21 (stereo not drawn) :: 90
[O-][S+]1CCc2nc(N3CCC(c4cc(Cl)cc(Cl)c4)CC3)nc(NC3(CO)CC3)c21 (stereo not drawn) :: 94
[O-][S+]1CCc2nc(N3CCC(c4nc5ccccc5o4)CC3)nc(NC3(CO)CC3)c21 (stereo not drawn) :: 97
[O-][S+]1CCc2nc(N3CCC(c4nc5cc(Cl)ccc5s4)CC3)nc(Nc3cccc(F)c3)c21 (stereo not drawn) :: 95
Cc1cccc(C2CCN(c3nc4c(c(NC5(CO)CC5)n3)[S+]([O-])CC4)CC2)c1 (stereo not drawn) :: 93
COc1ccc(C2CCN(c3nc4c(c(Nc5cccc(F)c5)n3)[S+]([O-])CC4)CC2)cc1 (stereo not drawn) :: 95
[O-][S+]1CCc2nc(N3CCC(c4noc5cc(F)ccc45)CC3)nc(NC3CCOCC3)c21 (stereo not drawn) :: 96
[O-][S+]1CCc2nc(N3CCC(c4cc(Cl)cc(Cl)c4)CC3)nc(NC3CCOCC3)c21 (stereo not drawn) :: 93
N#Cc1cccc(C2CCN(c3nc4c(c(Nc5cccc(F)c5)n3)[S+]([O-])CC4)CC2)c1 (stereo not drawn) :: 96
N#Cc1cccc(C2CCN(c3nc4c(c(NC5(CO)CC5)n3)[S+]([O-])CC4)CC2)c1 (stereo not drawn) :: 94
CN1C[C@@H](Nc2nc(N3CCC(c4c[nH]c5ccccc45)CC3)nc3c2[S+]([O-])CC3)CCC1=O (stereo partly drawn) :: 97
[O-][S+]1CCc2nc(N3CCC(O)(c4cc(F)cc(F)c4)CC3)nc(NC3CCOCC3)c21 (stereo not drawn) :: 96
[O-][S+]1CCc2nc(N3CCC(c4ccc(Cl)cc4)CC3)nc(NC3(CO)CC3)c21 (stereo not drawn) :: 94
[O-][S+]1CCc2nc(N3CCC(O)(c4cc(F)cc(F)c4)CC3)nc(NC3(CO)CC3)c21 (stereo not drawn) :: 95
CN1C[C@@H](Nc2nc(N3CCC(c4cccc(O)c4)CC3)nc3c2[S+]([O-])CC3)CCC1=O (stereo partly drawn) :: 97
[O-][S+]1CCc2nc(N3CCC4(CC3)OCc3ccccc34)nc(NC3CCOCC3)c21 (stereo not drawn) :: 74
CN1C[C@@H](Nc2nc(N3CCC(c4ccncc4)CC3)nc3c2[S+]([O-])CC3)CCC1=O (stereo partly drawn) :: 96
COC(=O)c1cccc(C2CCN(c3nc4c(c(NC5CCOCC5)n3)[S+]([O-])CC4)CC2)c1 (stereo not drawn) :: 95
[O-][S+]1CCc2nc(N3CCC(c4ccc(C(F)(F)F)cc4)CC3)nc(NC3(CO)CC3)c21 (stereo not drawn) :: 93
[O-][S+]1CCc2nc(N3CCC(c4cccc(Br)c4)CC3)nc(NC3(CO)CC3)c21 (stereo not drawn) :: 94
CC(C)[C@H](CO)Nc1nc(N2CCC(c3cc(-c4ccco4)n[nH]3)CC2)nc2c1[S+]([O-])CC2 (stereo partly drawn) [Example 161, Trifluoroacetate] :: 94
CC(C)c1noc(C2CCN(c3nc4c(c(NC5CCOCC5)n3)[S+]([O-])CC4)CC2)n1 (stereo not drawn) :: 93

---

target: UniProt Q07343; assay: Scintillation Proximity Assay (SPA) of PDE4B enzyme activity ([H3]-cAMP cleavage); format: biochemical; settings: test substance 1 μM; one-hour incubation with [H3]-cAMP at 30° C.
quantity kind: inhibition at 1 µM (%)

[O-][S+]1CCc2nc(N3CCC(c4nc5c(o4)CCCC5)CC3)nc(NC3(CO)CC3)c21 (centres unmarked) :: 93
Cc1nn(C)cc1CNC(=O)c1ccc(OC2CCN(c3nc4c(c(NC5CCOCC5)n3)[S+]([O-])CC4)CC2)cc1 (centres unmarked) :: 94
[O-][S+]1CCc2nc(N3CCC(c4nc5ccncc5[nH]4)CC3)nc(NC3CCOCC3)c21 (centres unmarked) :: 88
CC(C)c1ccc(OC2CCN(c3nc4c(c(NC5CCOCC5)n3)[S+]([O-])CC4)CC2)cc1 (centres unmarked) :: 94
CCCN1C[C@@H](Nc2nc(N3CCC(c4ccc(Cl)cc4)CC3)nc3c2[S+]([O-])CC3)CCC1=O (some centres unmarked) :: 95
[O-][S+]1CCc2nc(N3CCC(c4nc5cccnc5[nH]4)CC3)nc(NC3CCOCC3)c21 (centres unmarked) :: 95
O=C(c1ccc(OC2CCN(c3nc4c(c(NC5CCOCC5)n3)[S+]([O-])CC4)CC2)cc1)N(C1CCOCC1)C1CC1 (centres unmarked) :: 95
[O-][S+]1CCc2nc(N3CCC(Oc4ccc(Cl)cc4)CC3)nc(NC3CCOCC3)c21 (centres unmarked) :: 92

---

biological target: PDE4B (Homo sapiens, UniProt Q07343); experiment: Scintillation Proximity Assay (SPA) of PDE4B enzyme activity ([H3]-cAMP cleavage); format: biochemical; details: test substance 1 μM; one-hour incubation with [H3]-cAMP at 30° C.
Sequence (Q07343 whole entry, species assumed): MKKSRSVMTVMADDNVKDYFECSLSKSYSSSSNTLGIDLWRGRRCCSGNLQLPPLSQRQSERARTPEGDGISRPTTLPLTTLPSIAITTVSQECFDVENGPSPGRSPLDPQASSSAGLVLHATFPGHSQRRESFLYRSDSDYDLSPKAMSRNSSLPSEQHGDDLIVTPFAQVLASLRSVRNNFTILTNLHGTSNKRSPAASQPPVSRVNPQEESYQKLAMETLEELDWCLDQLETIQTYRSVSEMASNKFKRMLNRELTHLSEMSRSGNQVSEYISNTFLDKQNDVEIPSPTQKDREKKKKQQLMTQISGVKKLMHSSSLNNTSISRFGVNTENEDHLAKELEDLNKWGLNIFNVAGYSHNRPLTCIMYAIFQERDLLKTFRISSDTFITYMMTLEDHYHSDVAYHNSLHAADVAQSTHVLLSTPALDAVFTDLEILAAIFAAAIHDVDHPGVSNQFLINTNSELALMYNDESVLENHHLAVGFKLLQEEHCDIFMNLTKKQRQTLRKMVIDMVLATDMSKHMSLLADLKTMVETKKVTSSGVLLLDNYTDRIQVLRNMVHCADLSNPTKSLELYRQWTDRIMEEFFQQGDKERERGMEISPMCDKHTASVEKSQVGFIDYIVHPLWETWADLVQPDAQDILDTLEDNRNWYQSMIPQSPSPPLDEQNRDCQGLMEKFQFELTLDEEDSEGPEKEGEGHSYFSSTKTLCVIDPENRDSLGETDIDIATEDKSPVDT
quantity kind: inhibition at 1 µM (%)

[O-][S+]1CCc2nc(N3CCC(O)(c4ccc(Cl)cc4)CC3)nc(Nc3cccc(F)c3)c21 (stereo not shown) [Example 290] :: 86
CC(C)[C@H](CO)Nc1nc(N2CCC(CN(C)S(C)(=O)=O)(c3ccccc3)CC2)nc2c1[S+]([O-])CC2 (stereo partly shown) [Example 331] :: 85
CN1C[C@@H](Nc2nc(N3CCC(C(=O)N4CCOCC4)(c4ccccc4)CC3)nc3c2[S+]([O-])CC3)CCC1=O (stereo partly shown) [Example 252] :: 92
CN1C[C@@H](Nc2nc(N3CCC(CN(C)S(C)(=O)=O)(c4ccccc4)CC3)nc3c2[S+]([O-])CC3)CCC1=O (stereo partly shown) [Example 270] :: 95
O=C(c1cccc(C2CCN(c3nc4c(c(NC5CCOCC5)n3)[S+]([O-])CC4)CC2)c1)N(C1CCOCC1)C1CC1 (stereo not shown) [Example 257] :: 94
Cc1nn(C)c(C)c1CNC(=O)c1ccc(C2CCN(c3nc4c(c(NC5CCOCC5)n3)[S+]([O-])CC4)CC2)cc1 (stereo not shown) [Example 230] :: 81
Cc1nn(C)cc1CNC(=O)c1cccc(C2CCN(c3nc4c(c(NC5CCOCC5)n3)[S+]([O-])CC4)CC2)c1 (stereo not shown) [Example 259] :: 92
Cc1cn(C)nc1CN(C)C(=O)c1ccc(C2CCN(c3nc4c(c(NC5CCOCC5)n3)[S+]([O-])CC4)CC2)cc1 (stereo not shown) [Example 226] :: 95
Cc1oc(C2CCN(c3nc4c(c(N[C@H]5CCC(=O)N(C)C5)n3)[S+]([O-])CC4)CC2)nc1-c1ccccc1 (stereo partly shown) [Example 275] :: 95
CC(C)[C@H](CO)Nc1nc(N2CCC(O)(c3ccc(Cl)cc3)CC2)nc2c1[S+]([O-])CC2 (stereo partly shown) [Example 296] :: 81
[O-][S+]1CCc2nc(N3CCC(Oc4ccc5c(c4)OCO5)CC3)nc(NC3CCOCC3)c21 (stereo not shown) [Example 174] :: 92
CN1C[C@@H](Nc2nc(N3CCC(Oc4ccc(F)cc4)CC3)nc3c2[S+]([O-])CC3)CCC1=O (stereo partly shown) [Example 169] :: 92
[O-][S+]1CCc2nc(N3CCC(COCc4ccccc4)(c4ccc(Cl)cc4)CC3)nc(NC3CCOCC3)c21 (stereo not shown) [Example 310] :: 92
CN(C(=O)c1ccc(OC2CCN(c3nc4c(c(NC5CCOCC5)n3)[S+]([O-])CC4)CC2)cc1)C1CC1 (stereo not shown) [Example 242] :: 94
CC(C)(NC(=O)c1cccc(C2CCN(c3nc4c(c(NC5CCOCC5)n3)[S+]([O-])CC4)CC2)c1)c1ccncc1 (stereo not shown) [Example 255] :: 93
COC1(c2ccc(Cl)cc2)CCN(c2nc3c(c(Nc4cccc(F)c4)n2)[S+]([O-])CC3)CC1 (stereo not shown) [Example 316] :: 92
CC(C)(O)C1(Nc2nc(N3CCC(c4ccc(Cl)cc4)CC3)nc3c2[S+]([O-])CC3)CC1 (stereo not shown) [Example 185] :: 94
CN1C[C@@H](Nc2nc(N3CCC(Oc4ccc(Cl)cc4)CC3)nc3c2[S+]([O-])CC3)CCC1=O (stereo partly shown) [Example 265] :: 89
[O-][S+]1CCc2nc(N3CCC(c4nc5c(o4)CCCC5)CC3)nc(NC3CCOCC3)c21 (stereo not shown) [Example 329] :: 95

The origin of these recorded values is patent US8754073B2.
